The reported numbers originate from the supplement of paper PMC3545927.

- experimental.system: furin, P09958;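 also: purified furin at 1:10 enzyme:substrate in 50 mM HEPES pH 7.5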
- Sequence (P09958 whole entry): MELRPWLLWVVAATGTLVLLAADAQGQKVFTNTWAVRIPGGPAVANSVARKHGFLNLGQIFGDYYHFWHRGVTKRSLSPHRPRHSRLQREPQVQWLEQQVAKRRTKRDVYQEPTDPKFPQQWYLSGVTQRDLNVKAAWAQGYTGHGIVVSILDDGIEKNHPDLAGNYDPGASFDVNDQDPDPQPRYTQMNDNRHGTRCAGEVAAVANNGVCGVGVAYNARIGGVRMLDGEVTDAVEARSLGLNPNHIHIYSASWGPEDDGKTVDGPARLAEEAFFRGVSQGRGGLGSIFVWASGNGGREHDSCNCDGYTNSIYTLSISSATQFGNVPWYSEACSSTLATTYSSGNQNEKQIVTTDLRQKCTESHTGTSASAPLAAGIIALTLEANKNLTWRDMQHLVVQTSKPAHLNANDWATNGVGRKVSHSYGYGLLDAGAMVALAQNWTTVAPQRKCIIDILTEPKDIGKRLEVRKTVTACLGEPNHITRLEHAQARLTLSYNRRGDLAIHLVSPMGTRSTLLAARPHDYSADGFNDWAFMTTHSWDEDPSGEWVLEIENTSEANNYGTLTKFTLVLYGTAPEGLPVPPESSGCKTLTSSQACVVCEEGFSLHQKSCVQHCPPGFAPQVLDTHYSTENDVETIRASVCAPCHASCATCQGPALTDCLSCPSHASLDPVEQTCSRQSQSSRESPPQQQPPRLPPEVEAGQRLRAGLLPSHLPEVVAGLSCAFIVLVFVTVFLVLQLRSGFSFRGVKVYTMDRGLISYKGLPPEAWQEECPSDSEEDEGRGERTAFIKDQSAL
- test.description: furin cleavage Z-score vs untreated control; higher = more cleavage, active = 3.5 or more, inactive = 1 or less, 8 variable residues between constant flanks
- experimental.conditions: 30 min
Some of the results follow. The true hit rate is not given.
Label scheme for furin cleavage Z-score: lower than 2 is not satisfied, 2 and above is satisfied.

Example cases with answers are listed next.
| residues | assigned.class |
| --- | --- |
| CAYLNRKRRGAGNASASA [FS-634] | satisfied |
| CARRRRSLPEAGNASASA [FS-2796] | satisfied |

# ---- query sequence ----
Assess whether reported furin cleavage Z-score for CADTAACGDIAGNASASA [HC655] sits at 2 or higher.
not satisfied
